# Measurement notes: Inhibitory activity against non-nucleoside reverse transcriptase inhibitors (NNRTI) -resistant HIV-1 strain A17 with a Y181C mutation in RT (reverse transcriptase)
Some compounds, each annotated with its measured IC50.
All answers are understood in µM, so give the number only.

{"columns": ["Structure as smiles", "IC50 [µM]"],
 "data": [
  ["S=C(NCCOc1ccccc1)Nc1nccs1", 4.4]
]}

Exam item: Give the reported IC50 for this compound. `Cc1ccc(CCNC(=S)Nc2nccs2)cc1`
Marked response: 3.9

Exam item: Supply IC50 value. Item: `S=C(NCCc1c[nH]c2ccccc12)Nc1nccs1`
Marked response: 2.2

Exam item: Could you please provide reported IC50 for `S=C(NCCC1=CCCCC1)Nc1nccs1` ? Thanks!
Marked response: 0.9

Exam item: Return reported IC50. Input compound: `S=C(NCC12CC3CC(CC(C3)C1)C2)Nc1nccs1`
Marked response: 0.6

Exam item: # return recorded IC50 for input `S=C(NCc1ccco1)Nc1nccs1`
Marked response: 2
